biological target: C. elegans (N2) complex I (NADH:ubiquinone oxidoreductase) (Caenorhabditis elegans, UniProt P24887+Q93873+Q94360); assay: biochemical; format: biochemical; settings: Dose 75 µM; read-out: C. elegans mitochondrial complex I activity
Sequence (Q94360 17-199): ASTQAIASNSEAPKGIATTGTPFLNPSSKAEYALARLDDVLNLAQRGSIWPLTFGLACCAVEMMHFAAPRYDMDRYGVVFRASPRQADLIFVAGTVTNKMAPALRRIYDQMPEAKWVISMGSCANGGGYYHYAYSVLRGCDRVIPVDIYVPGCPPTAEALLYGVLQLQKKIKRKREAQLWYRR
Sequence (P24887 whole entry): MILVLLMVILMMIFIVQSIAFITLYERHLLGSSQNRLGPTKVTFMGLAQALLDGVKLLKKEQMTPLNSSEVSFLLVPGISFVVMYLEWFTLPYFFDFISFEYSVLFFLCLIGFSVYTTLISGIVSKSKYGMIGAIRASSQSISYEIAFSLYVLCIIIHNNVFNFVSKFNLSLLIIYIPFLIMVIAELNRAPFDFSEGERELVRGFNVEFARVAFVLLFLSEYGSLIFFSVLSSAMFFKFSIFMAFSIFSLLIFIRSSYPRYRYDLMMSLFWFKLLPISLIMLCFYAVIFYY
Sequence (Q93873 31-482): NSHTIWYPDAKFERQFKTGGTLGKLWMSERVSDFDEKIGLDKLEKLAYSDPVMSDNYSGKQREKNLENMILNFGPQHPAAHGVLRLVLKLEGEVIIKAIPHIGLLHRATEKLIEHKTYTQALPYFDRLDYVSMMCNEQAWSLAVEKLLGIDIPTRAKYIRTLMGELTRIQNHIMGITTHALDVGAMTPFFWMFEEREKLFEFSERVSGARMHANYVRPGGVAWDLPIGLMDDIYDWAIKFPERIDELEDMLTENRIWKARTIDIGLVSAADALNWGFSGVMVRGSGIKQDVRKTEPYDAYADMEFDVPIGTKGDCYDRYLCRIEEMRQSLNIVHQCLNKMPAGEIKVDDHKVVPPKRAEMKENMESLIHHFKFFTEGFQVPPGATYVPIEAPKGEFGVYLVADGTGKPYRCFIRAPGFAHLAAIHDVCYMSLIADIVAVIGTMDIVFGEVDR
Could you please classify the records by activity at 75 µM using these ranges: c1 = under 3%, c2 = from 3% up to 6%, c3 = 6% and over

| molecule | label |
| --- | --- |
| Cc1nc2ccccc2n1Cc1ccc(Cl)c(Cl)c1 | c1 |
| Cc1ccc(C(C)C)c(OCC(O)Cn2cnc3ccccc32)c1 (stereo not shown) | c1 |
| CC(C)Oc1cccc(OCCn2cnc3ccccc32)c1 | c1 |
| Cc1ccc(CSCc2nc3ccccc3[nH]2)cc1 | c3 |
| Cc1ccc(OCCn2cnc3ccccc32)c(C)c1 | c3 |
| Cc1ccccc1OCCCn1c(C)nc2ccccc21 | c2 |
| Clc1ccccc1OCCCCn1cnc2ccccc21 | c3 |
| Cc1ccc(SCCCn2cnc3ccccc32)cc1 | c2 |
| Clc1ccc(OCCn2cnc3ccccc32)c(Cl)c1 | c3 |

----------
target: C. elegans (N2) complex I (NADH:ubiquinone oxidoreductase) (Caenorhabditis elegans, UniProt P24887+Q93873+Q94360); experiment: biochemical; format: biochemical; conditions: Dose 0.125 µM; read-out: C. elegans mitochondrial complex I activity

| compound | activity at 0.125 µM / % |
| --- | --- |
| Cc1ccc(CSCc2nc3ccccc3[nH]2)cc1 [Compound 7121781] | 95.8 |
| Cc1nc2ccccc2n1CCOc1ccccc1 [Compound 5550112] | 80.5 |
| Cc1ccccc1OCCCn1c(C)nc2ccccc21 [Compound 7916923] | 86.3 |
| Brc1ccccc1OCCCCn1cnc2ccccc21 [Compound 7924576] | 67.2 |

----------
biological target: C. elegans (N2) complex I (NADH:ubiquinone oxidoreductase) (Caenorhabditis elegans, UniProt P24887+Q93873+Q94360); experiment: biochemical; assay type: biochemical; settings: dose 0.001 µM; wild-type C. elegans; mean of replicates; read-out: in vitro complex I activity relative to solvent control, Mean
Some compounds, each annotated with its measured remaining activity at 0.001 µM.
readout label: remaining activity at 0.001 µM (%)

| compound | value reported |
| --- | --- |
| Cc1nc2ccccc2n1Cc1ccc(Cl)cc1 | 92.2 |
| C=C(C)[C@H]1Cc2c(ccc3c2O[C@@H]2COc4cc(OC)c(OC)cc4[C@@H]2C3=O)O1 [Rotenone, reference compound] | 104 |
| Cc1ccccc1OCCCCn1cnc2ccccc21 | 115 |
| CC(C)(C)c1ccc(CCOc2ncnc3ccccc23)cc1 [Fenazaquin, reference compound] | 82.5 |
| COC(=O)Nc1nc2ccc(Sc3ccccc3)cc2[nH]1 [fenbendazole, reference compound] | 107 |

----------
Some compounds, each annotated with its measured activity at 0.125 µM.
molecular target: B. taurus (heart) complex I (Bos taurus, UniProt P03887+P17694+P42026); experiment: biochemical; type: biochemical; conditions: Dose 0.125 µM; read-out: B. taurus mitochondrial complex I activity
Sequence (P03887 whole entry): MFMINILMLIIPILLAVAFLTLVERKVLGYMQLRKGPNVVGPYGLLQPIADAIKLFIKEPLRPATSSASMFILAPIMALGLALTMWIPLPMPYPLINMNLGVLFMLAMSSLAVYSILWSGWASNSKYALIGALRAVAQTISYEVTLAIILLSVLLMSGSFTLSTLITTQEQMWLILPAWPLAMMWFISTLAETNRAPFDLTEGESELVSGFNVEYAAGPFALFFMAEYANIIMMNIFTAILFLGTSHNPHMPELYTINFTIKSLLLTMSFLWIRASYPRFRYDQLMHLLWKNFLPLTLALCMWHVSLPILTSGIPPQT
Sequence (P17694 34-463): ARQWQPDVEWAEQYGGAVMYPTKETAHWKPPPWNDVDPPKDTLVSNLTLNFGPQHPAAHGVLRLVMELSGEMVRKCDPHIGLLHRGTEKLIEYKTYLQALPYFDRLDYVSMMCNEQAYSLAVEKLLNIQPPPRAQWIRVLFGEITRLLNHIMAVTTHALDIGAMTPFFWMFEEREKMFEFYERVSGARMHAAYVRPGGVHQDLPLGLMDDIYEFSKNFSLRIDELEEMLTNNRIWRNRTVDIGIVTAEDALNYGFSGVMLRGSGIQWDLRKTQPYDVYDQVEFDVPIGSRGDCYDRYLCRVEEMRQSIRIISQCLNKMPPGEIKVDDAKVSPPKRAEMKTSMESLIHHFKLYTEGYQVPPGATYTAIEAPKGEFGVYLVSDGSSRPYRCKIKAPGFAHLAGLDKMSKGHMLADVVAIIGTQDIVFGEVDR
Sequence (P42026 38-216): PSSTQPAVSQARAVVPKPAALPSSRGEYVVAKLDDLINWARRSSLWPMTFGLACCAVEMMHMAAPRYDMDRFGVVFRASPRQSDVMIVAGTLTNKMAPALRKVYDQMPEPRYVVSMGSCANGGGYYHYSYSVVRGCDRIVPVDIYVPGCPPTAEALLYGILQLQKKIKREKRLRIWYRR
readout label: activity at 0.125 µM (%)

| compound | target or test system | value reported |
| --- | --- | --- |
| Cc1ccc(C(C)C)c(OCC(O)Cn2cnc3ccccc32)c1 (centres unmarked) | B. taurus (heart) complex I (Bos taurus, UniProt P03887+P17694+P42026) | 90 |
| Cc1ccc(OCCn2cnc3ccccc32)c(C)c1 | B. taurus (heart) complex I (Bos taurus, UniProt P03887+P17694+P42026) | 93.5 |
| Nc1nc2ccccc2n1CCOc1ccc(Br)cc1 | B. taurus (heart) complex I (Bos taurus, UniProt P03887+P17694+P42026) | 92 |
| Cc1ccc(OCCn2cnc3ccccc32)cc1 | B. taurus (heart) complex I (Bos taurus, UniProt P03887+P17694+P42026) | 89.3 |
| CC(C)Oc1cccc(OCCn2cnc3ccccc32)c1 | B. taurus (heart) complex I (Bos taurus, UniProt P03887+P17694+P42026) | 80.2 |
| CCc1cc(OCCn2cnc3ccccc32)ccc1Cl | B. taurus (heart) complex I (Bos taurus, UniProt P03887+P17694+P42026) | 82.8 |
| Cc1nc2ccccc2n1CCOc1ccccc1 | B. taurus (heart) complex I (Bos taurus, UniProt P03887+P17694+P42026) | 95.1 |
| Clc1ccc(OCCn2cnc3ccccc32)c(Cl)c1 | B. taurus (heart) complex I (Bos taurus, UniProt P03887+P17694+P42026) | 86.5 |
| FC(F)(F)c1cccc(OCCCCn2cnc3ccccc32)c1 | B. taurus (heart) complex I (Bos taurus, UniProt P03887+P17694+P42026) | 81.8 |
| Brc1ccccc1OCCCCn1cnc2ccccc21 | B. taurus (heart) complex I (Bos taurus, UniProt P03887+P17694+P42026) | 84.6 |
| Clc1ccccc1OCCCCn1cnc2ccccc21 | B. taurus (heart) complex I (Bos taurus, UniProt P03887+P17694+P42026) | 99.3 |
| Cc1ccccc1OCCCCn1cnc2ccccc21 | B. taurus (heart) complex I (Bos taurus, UniProt P03887+P17694+P42026) | 69.1 |
| Cc1ccc(SCCCCn2cnc3ccccc32)cc1 | B. taurus (heart) complex I (Bos taurus, UniProt P03887+P17694+P42026) | 99.3 |
| Cc1ccccc1OCCCn1c(C)nc2ccccc21 | B. taurus (heart) complex I (Bos taurus, UniProt P03887+P17694+P42026) | 90.7 |
| Cc1cccc(OCCn2c(C)nc3ccccc32)c1 | B. taurus (heart) complex I (Bos taurus, UniProt P03887+P17694+P42026) | 87.7 |
| CCCOc1ccc(Cn2cnc3ccccc32)cc1 | B. taurus (heart) complex I (Bos taurus, UniProt P03887+P17694+P42026) | 101 |
| Clc1ccc(SCCCCn2cnc3ccccc32)cc1 | B. taurus (heart) complex I (Bos taurus, UniProt P03887+P17694+P42026) | 98.1 |
| Nc1nc2ccccc2n1Cc1ccc(Cl)cc1 | B. taurus (heart) complex I (Bos taurus, UniProt P03887+P17694+P42026) | 79.5 |
| Cc1nc2ccccc2n1Cc1ccc(Cl)c(Cl)c1 | B. taurus (heart) complex I (Bos taurus, UniProt P03887+P17694+P42026) | 78.8 |
| Cc1nc2ccccc2n1CCOc1ccccc1Cl | B. taurus (heart) complex I (Bos taurus, UniProt P03887+P17694+P42026) | 88.4 |
| Clc1ccc(Cn2cnc3ccccc32)cc1Cl | B. taurus (heart) complex I (Bos taurus, UniProt P03887+P17694+P42026) | 96 |
| Cc1ccc(SCCCn2cnc3ccccc32)cc1 | B. taurus (heart) complex I (Bos taurus, UniProt P03887+P17694+P42026) | 97 |
| Clc1ccc(Cn2cnc3ccccc32)c(Cl)c1 | B. taurus (heart) complex I (Bos taurus, UniProt P03887+P17694+P42026) | 83.5 |
